- Study System: T1, human GITR-Fc (human, UniProt Q9Y5U5 26-161)
- T1 construct: Recombinant GITR-Fc; also called hGITR-Fc; hGITR; not shown: Fc part
- T1 sequence (looked up): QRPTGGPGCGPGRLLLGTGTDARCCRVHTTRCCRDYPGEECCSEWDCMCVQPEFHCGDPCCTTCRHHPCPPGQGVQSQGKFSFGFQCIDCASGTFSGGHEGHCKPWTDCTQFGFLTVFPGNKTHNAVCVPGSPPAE
- Test Description: direct titration ELISA on coated human GITR-Fc, IgG1 0.001-1 µg/ml, OD 450 nm

| Binder | binding result |
| --- | --- |
| VH4/VL2 IgG1 (antibody, V domains shown, Human IgG1; also called VH4 family) VH: EVQLVQSGAEVKKPGESLKISCKGSGFSLSTSGMGVGWVRQMPGKGLEWLAHIWWDDDKYYSPSFQGQVTISADKSISTAYLQWSSLKASDTAMYYCARTRRYFPFAYWGQGTLVTVSS VL: EIVLTQSPATLSLSPGERATLSCRASQNVGTNVAWYQQKPGQAPRLLIYSASYRYSGIPARFSGSGSGTDFTLTISSLEPEDFAVYYCQQYNTDPLTFGGGTKVEIK | binds |
| VH4/VL1 IgG1 (antibody, V domains shown, Human IgG1; also called VH4 family) VH: EVQLVQSGAEVKKPGESLKISCKGSGFSLSTSGMGVGWVRQMPGKGLEWLAHIWWDDDKYYSPSFQGQVTISADKSISTAYLQWSSLKASDTAMYYCARTRRYFPFAYWGQGTLVTVSS VL: EIVMTQSPATLSVSPGERATLSCKASQNVGTNVAWYQQKPGQAPRLLIYSASYRYSGIPARFSGSGSGTEFTLTISSLQSEDFAVYYCQQYNTDPLTFGGGTKVEIK | binds |
| VH4/VL3 IgG1 (antibody, V domains shown, Human IgG1; also called VH4 family) VH: EVQLVQSGAEVKKPGESLKISCKGSGFSLSTSGMGVGWVRQMPGKGLEWLAHIWWDDDKYYSPSFQGQVTISADKSISTAYLQWSSLKASDTAMYYCARTRRYFPFAYWGQGTLVTVSS VL: DIQMTQSPSSLSASVGDRVTITCRASQNVGTNVAWYQQKPGKAPKLLIYSASYRYSGVPSRFSGSGSGTDFTLTISSLQPEDFATYYCQQYNTDPLTFGGGTKVEIK | binds |
